- Experimental system: QR1 (NQO1) (Homo sapiens, UniProt P15559)
- Construct: purchased Sigma-Aldrich
- Sequence (P15559 whole entry): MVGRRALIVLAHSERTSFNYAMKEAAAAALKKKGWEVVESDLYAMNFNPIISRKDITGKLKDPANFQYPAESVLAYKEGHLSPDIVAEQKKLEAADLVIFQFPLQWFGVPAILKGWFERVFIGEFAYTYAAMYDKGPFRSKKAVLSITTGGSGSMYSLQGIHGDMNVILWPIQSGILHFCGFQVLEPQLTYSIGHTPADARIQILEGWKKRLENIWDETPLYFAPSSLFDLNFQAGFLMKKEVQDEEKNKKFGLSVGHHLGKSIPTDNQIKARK
- Assay name: Selectivity assay with QR1 in place of QR2, fluorescence readout
- Format: biochemical
Measurement kind: IC50

{"columns": ["Compound", "Experimental system", "IC50"],
 "data": [
  ["COCC1CN(S(=O)(=O)Cc2ccccc2)CC12CCNCC2 (stereo not drawn)", "QR1 (NQO1) (Homo sapiens, UniProt P15559)", "> 9.9 µM"],
  ["Cc1ccn2cc(-c3cccc(S(=O)(=O)NCCCN4CCCC4=O)c3)nc2c1", "QR1 (NQO1) (Homo sapiens, UniProt P15559)", "5.28 µM"],
  ["Cc1cc(-c2ccc(C)c(S(=O)(=O)N3CCC(C)CC3)c2)on1", "QR1 (NQO1) (Homo sapiens, UniProt P15559)", "> 9.99 µM"],
  ["Cc1cc(-c2ccc(C)c(S(=O)(=O)NCc3cccnc3)c2)n[nH]1", "QR1 (NQO1) (Homo sapiens, UniProt P15559)", "> 9.99 µM"],
  ["Cc1ccn2cc(-c3ccc(C)c(S(=O)(=O)N4CCCC4)c3)nc2c1", "QR1 (NQO1) (Homo sapiens, UniProt P15559)", "> 9.99 µM"]
]}

Field: IC50. Fill in for each record below.
1. CCCn1cc(C2CCN(S(=O)(=O)c3ccc(C(C)(C)C)cc3)CC2)c2cccnc21
2. Cc1csc(-c2cc(S(=O)(=O)NC3CCCCC3)c(C)n2C)n1
3. Cc1ccn2cc(-c3ccc(C)c(S(=O)(=O)N4CCN(C(=O)c5ccco5)CC4)c3)nc2c1
4. Cc1ccn2cc(-c3cccc(S(=O)(=O)N(C)C)c3)nc2c1
5. Cc1ccc(-c2nnc(-c3ccccc3)o2)cc1S(=O)(=O)NCc1cccnc1

> 9.9 µM
> 9.9 µM
> 9.99 µM
> 9.99 µM
> 9.99 µM

Field: IC50. Fill in for each record below.
1. Cc1cccn2cc(-c3cccc(S(=O)(=O)N4CCN(C(=O)c5ccco5)CC4)c3)nc12
2. COc1cc(NS(C)(=O)=O)ccc1Cc1c2ccccc2nc2ccccc12
3. CCCn1cc(C2=CCN(S(=O)(=O)Cc3ccccc3)CC2)c2cccnc21

1. 3.33 µM
2. > 9.8 µM
3. > 9.9 µM

Field: IC50. Fill in for each record below.
1. COc1cc(Cl)c(NS(=O)(=O)c2ccc(-c3cc(C)no3)cc2OC)c(OC)c1
2. Cc1cc(-c2ccc(C)c(S(=O)(=O)N3CCCCCC3)c2)on1
3. Cc1ccc(-c2cn3cccc(C)c3n2)cc1S(=O)(=O)N1CCN(C)CC1
4. CCOC(=O)C1CCN(S(=O)(=O)c2cc(-c3csc(C)n3)ccc2C)CC1
5. COCCNC(=O)N1CCN(S(=O)(=O)c2c(C)c(C)c(C)c(C)c2C)CC1
6. N#Cc1nc(-c2ccc(S(=O)(=O)N3CCCC3)cc2)oc1NCCCN1CCOCC1
7. Cc1cc(-c2ccc(C)c(S(=O)(=O)N(C)C)c2)on1
8. Cc1cc(-c2ccc(C)c(S(=O)(=O)NCCCN3CCCC3=O)c2)on1

1: > 9.9 µM; 2: > 9.99 µM; 3: > 9.99 µM; 4: > 9.9 µM; 5: > 9.8 µM; 6: < 0.83 µM; 7: > 9.99 µM; 8: > 9.9 µM

Field: IC50. Fill in for each record below.
1. Cc1cccn2cc(-c3cccc(S(=O)(=O)N4CCCCCC4)c3)nc12
2. Cc1c(-c2nnc(C3CCC3)o2)c(S(=O)(=O)NCc2ccc(Cl)cc2)c(C)n1C
3. CCCS(=O)(=O)Nc1ccc2c(c1)C(=O)Nc1cc(C)ccc1O2
4. Cc1cc(-c2ccc(C)c(S(=O)(=O)N3CCC(C)CC3)c2)n[nH]1
5. CCOC(=O)c1cc(-c2ccc(OC)c(S(=O)(=O)N3CCCc4ccccc43)c2)on1
6. Cc1cc(-c2ccc(C)c(S(=O)(=O)NCc3cccnc3)c2)on1

["5.83 µM", "> 9.9 µM", "4.6 µM", "> 9.99 µM", "> 9.9 µM", "> 9.9 µM"]
